Data provenance is patent US7879913B2.

# Tested system: human α4β2-nAChR (Homo sapiens, UniProt P17787+P43681)
# Construct: expressed in transfected cells; host or cells: SH-EP1 human epithelial cell line (SH-EP1-hα4β2)
# Sequence (P43681 29-627 limits assumed): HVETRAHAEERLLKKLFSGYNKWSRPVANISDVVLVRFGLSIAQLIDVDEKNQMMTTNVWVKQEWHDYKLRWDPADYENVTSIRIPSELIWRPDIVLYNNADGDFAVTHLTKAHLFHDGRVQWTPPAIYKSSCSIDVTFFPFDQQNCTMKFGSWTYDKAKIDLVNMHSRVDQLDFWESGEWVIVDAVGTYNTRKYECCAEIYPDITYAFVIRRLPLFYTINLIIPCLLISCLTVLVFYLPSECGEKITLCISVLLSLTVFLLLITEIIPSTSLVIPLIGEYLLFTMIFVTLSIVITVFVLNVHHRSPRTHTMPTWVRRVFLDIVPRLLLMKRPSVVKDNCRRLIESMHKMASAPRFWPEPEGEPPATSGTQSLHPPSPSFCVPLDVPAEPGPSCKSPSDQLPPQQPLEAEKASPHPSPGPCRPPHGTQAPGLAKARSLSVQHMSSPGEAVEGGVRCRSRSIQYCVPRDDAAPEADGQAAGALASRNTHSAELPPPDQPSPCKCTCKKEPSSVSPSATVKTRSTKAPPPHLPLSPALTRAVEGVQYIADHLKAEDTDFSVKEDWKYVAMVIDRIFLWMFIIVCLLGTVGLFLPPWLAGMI
# Sequence (P17787 26-502): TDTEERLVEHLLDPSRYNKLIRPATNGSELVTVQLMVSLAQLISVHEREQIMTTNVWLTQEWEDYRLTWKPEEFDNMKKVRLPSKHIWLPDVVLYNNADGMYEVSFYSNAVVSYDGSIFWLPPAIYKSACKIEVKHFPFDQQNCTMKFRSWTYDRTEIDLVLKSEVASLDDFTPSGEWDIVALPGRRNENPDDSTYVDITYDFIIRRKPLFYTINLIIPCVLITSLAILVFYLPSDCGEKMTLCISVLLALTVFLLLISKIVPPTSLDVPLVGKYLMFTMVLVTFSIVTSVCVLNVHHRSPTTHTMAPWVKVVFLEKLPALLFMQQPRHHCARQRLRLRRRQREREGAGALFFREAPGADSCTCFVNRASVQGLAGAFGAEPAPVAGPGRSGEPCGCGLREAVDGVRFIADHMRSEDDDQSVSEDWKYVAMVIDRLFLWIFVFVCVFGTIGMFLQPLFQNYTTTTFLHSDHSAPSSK
# Procedure summary: whole-cell voltage-clamp currents of heterologously expressed human α4β2-nAChR in SH-EP1 cells
# Assay type: cell-based
# Stated conditions: co-application condition; 3 μM nicotine; n=6; read-out: IC50 for inhibition of whole-cell steady-state current
Parameter: IC50 (µM)
Answers are plain numbers, in µM.

The molecule CC(C)NC(C)(C)C(C)C.Cl [IPT, iptakalim hydrochloride] showed IC50 equal to 1

====

# Tested system: human α7-nAChR (Homo sapiens)
# Sequence (P36544 23-502): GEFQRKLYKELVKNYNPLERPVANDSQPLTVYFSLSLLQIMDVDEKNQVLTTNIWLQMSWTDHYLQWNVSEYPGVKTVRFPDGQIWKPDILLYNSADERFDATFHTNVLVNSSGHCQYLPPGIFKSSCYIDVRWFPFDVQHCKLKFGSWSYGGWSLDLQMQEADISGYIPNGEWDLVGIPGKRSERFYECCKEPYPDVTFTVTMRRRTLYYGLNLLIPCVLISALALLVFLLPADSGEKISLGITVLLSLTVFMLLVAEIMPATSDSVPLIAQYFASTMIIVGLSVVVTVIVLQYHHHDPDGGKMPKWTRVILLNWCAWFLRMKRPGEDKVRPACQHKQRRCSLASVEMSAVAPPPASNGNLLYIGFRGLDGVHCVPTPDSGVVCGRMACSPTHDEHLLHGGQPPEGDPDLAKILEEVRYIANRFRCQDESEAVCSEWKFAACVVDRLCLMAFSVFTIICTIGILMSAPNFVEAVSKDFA
# Procedure summary: whole-cell current responses of α7-nAChR to choline
# Stated conditions: co-application with agonist (choline); peak current; read-out: IC50 for α7-nAChR blockade
Parameter: IC50

Data point: CC(C)NC(C)(C)C(C)C.Cl [IPT, iptakalim hydrochloride] ; IC50 = > 1 mM

====

# Tested system: human α4β2-nAChR (Homo sapiens, UniProt P17787+P43681)
# Construct: expressed in transfected cells; host or cells: SH-EP1 human epithelial cell line (SH-EP1-hα4β2)
# Procedure summary: whole-cell voltage-clamp currents of heterologously expressed human α4β2-nAChR in SH-EP1 cells
# Assay type: cell-based
# Stated conditions: co-application with agonist, without pretreatment; 3 μM nicotine; read-out: IC50 for inhibition of peak whole-cell responses
Parameter: IC50 (µM)
Give bare numbers, in µM.

Let me check: CC(C)NC(C)(C)C(C)C.Cl [IPT, iptakalim hydrochloride] , system human α4β2-nAChR (Homo sapiens, UniProt P17787+P43681), measured IC50 is 31

====

# Tested system: human α4β2-nAChR (Homo sapiens, UniProt P17787+P43681)
# Construct: expressed in transfected cells; host or cells: SH-EP1 human epithelial cell line (SH-EP1-hα4β2)
# Procedure summary: whole-cell voltage-clamp currents of heterologously expressed human α4β2-nAChR in SH-EP1 cells
# Type: cell-based
# Stated conditions: with 3 min pretreatment with IPT; 3 μM nicotine; read-out: IC50 for inhibition of peak whole-cell responses
Parameter: pIC50
Numbers only, as −log10 of the molar value.

Readout pIC50 for CC(C)NC(C)(C)C(C)C.Cl [IPT, iptakalim hydrochloride] , test system human α4β2-nAChR (Homo sapiens, UniProt P17787+P43681), was 5.30
